Tested on: 967376-340-R-J2-PDC multicell spheroid viability
test protocol: Anticancer human tumor 967376-340-R-J2-PDC patient-derived colon adenocarcinoma cell line growth inhibition [PI3K]
condition details: second compound 0.1 µM; first compound 0.0949 µM; stronger effect = lower value
Some compounds, each annotated with its measured viability, T/C.
measurement label: viability, T/C (%)

[[record]]
compound = "Cn1cnc2c(F)c(Nc3ccc(Br)cc3Cl)c(C(=O)NOCCO)cc21 + COc1c(OCCCN2CCOCC2)ccc2c3n(c(=NC(=O)c4cnc(N)nc4)nc12)CCN3"
test_system = "967376-340-R-J2-PDC multicell spheroid viability"
measurement_label = "viability, T/C"
result_value = 49.6

[[record]]
compound = "Cn1cnc2c(F)c(Nc3ccc(Br)cc3Cl)c(C(=O)NOCCO)cc21 + CC(Nc1ccc2c(c1)OCCn1cc(N3C(=O)OCC3C(F)F)nc1-2)C(N)=O"
test_system = "967376-340-R-J2-PDC multicell spheroid viability"
measurement_label = "viability, T/C"
result_value = 67.8

[[record]]
compound = "Cn1cnc2c(F)c(Nc3ccc(Br)cc3Cl)c(C(=O)NOCCO)cc21 + CC(Nc1ncnc2nc[nH]c12)c1cc2cccc(Cl)c2c(=O)n1-c1ccccc1"
test_system = "967376-340-R-J2-PDC multicell spheroid viability"
measurement_label = "viability, T/C"
result_value = 87.5

[[record]]
compound = "Cn1cnc2c(F)c(Nc3ccc(Br)cc3Cl)c(C(=O)NOCCO)cc21 + Cc1nc(NC(=O)N2CCCC2C(N)=O)sc1-c1ccnc(C(C)(C)C(F)(F)F)c1"
test_system = "967376-340-R-J2-PDC multicell spheroid viability"
measurement_label = "viability, T/C"
result_value = 76.7


---

Some compounds, each annotated with its measured viability, T/C.
System: 967376-340-R-J2-PDC multicell spheroid viability
test protocol: Anticancer human tumor 967376-340-R-J2-PDC cell line growth inhibition [PI3K];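 note: luminescence used as surrogate of cell viability; spheroids exposed to agents for 7 days before read-out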
condition details: second compound 1 µM; first compound 0.1 µM; stronger effect = lower value
measurement label: viability, T/C

[[record]]
compound = "Cn1nccc1Nc1nccc(-c2ccn(C(CO)c3ccc(Cl)c(F)c3)c(=O)c2)n1 (stereo not drawn) + CC(Nc1ncnc2nc[nH]c12)c1cc2cccc(Cl)c2c(=O)n1-c1ccccc1"
measurement_label = "viability, T/C"
result_value = "93.3%"

[[record]]
compound = "CC(Cn1ccc(-c2ccc(C#N)c(Cl)c2)n1)NC(=O)c1cc(C(C)O)[nH]n1 (stereo not drawn) + Cc1nc(NC(=O)N2CCCC2C(N)=O)sc1-c1ccnc(C(C)(C)C(F)(F)F)c1"
measurement_label = "viability, T/C"
result_value = "66.8%"

[[record]]
compound = "CC(C)n1nc(-c2ccc3oc(N)nc3c2)c2c(N)ncnc21 + CC(Nc1ncnc2nc[nH]c12)c1cc2cccc(Cl)c2c(=O)n1-c1ccccc1"
measurement_label = "viability, T/C"
result_value = "53%"


---

Test system: 967376-340-R-J2-PDC multicell spheroid viability
test protocol: Anticancer human tumor 967376-340-R-J2-PDC cell line growth inhibition [PI3K];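 note: luminescence used as surrogate of cell viability; spheroids exposed to agents for 7 days before read-out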
condition details: second compound 0.1 µM; first compound 1 µM; stronger effect = lower value
hey, just use Satisfied if measured viability, T/C is less than 80%, otherwise Not satisfied

[[record]]
molecule = "CCN1CCN(Cc2ccc(Nc3ncc(F)c(-c4cc(F)c5nc(C)n(C(C)C)c5c4)n3)nc2)CC1 + CC(Nc1ncnc2nc[nH]c12)c1cc2cccc(Cl)c2c(=O)n1-c1ccccc1"
class = "Not satisfied"

[[record]]
molecule = "Cn1ncc(Cl)c1-c1cc(C(=O)NC(CN)Cc2cccc(F)c2)sc1Cl (stereo unspecified) + COc1c(OCCCN2CCOCC2)ccc2c3n(c(=NC(=O)c4cnc(N)nc4)nc12)CCN3"
class = "Satisfied"

[[record]]
molecule = "CC(C)NCC(C(=O)N1CCN(c2ncnc3c2C(C)CC3O)CC1)c1ccc(Cl)cc1 (stereo unspecified) + CC(Nc1ncnc2nc[nH]c12)c1cc2cccc(Cl)c2c(=O)n1-c1ccccc1"
class = "Not satisfied"

[[record]]
molecule = "C[C@@H](NC(=O)c1ncnc(N)c1Cl)c1ncc(C(=O)Nc2cc(C(F)(F)F)c(Cl)cn2)s1 + CC(Nc1ncnc2nc[nH]c12)c1cc2cccc(Cl)c2c(=O)n1-c1ccccc1"
class = "Not satisfied"

[[record]]
molecule = "CCCS(=O)(=O)Nc1ccc(F)c(C(=O)c2c[nH]c3ncc(-c4ccc(Cl)cc4)cc23)c1F + COc1c(OCCCN2CCOCC2)ccc2c3n(c(=NC(=O)c4cnc(N)nc4)nc12)CCN3"
class = "Satisfied"

[[record]]
molecule = "CC(Cn1ccc(-c2ccc(C#N)c(Cl)c2)n1)NC(=O)c1cc(C(C)O)[nH]n1 (stereo unspecified) + Cc1nc(NC(=O)N2CCCC2C(N)=O)sc1-c1ccnc(C(C)(C)C(F)(F)F)c1"
class = "Not satisfied"

[[record]]
molecule = "CC1(C)CCC(CN2CCN(c3ccc(C(=O)NS(=O)(=O)c4ccc(NCC5CCOCC5)c([N+](=O)[O-])c4)c(Oc4cnc5[nH]ccc5c4)c3)CC2)=C(c2ccc(Cl)cc2)C1 + COc1c(OCCCN2CCOCC2)ccc2c3n(c(=NC(=O)c4cnc(N)nc4)nc12)CCN3"
class = "Satisfied"

[[record]]
molecule = "CC(C)NCC(C(=O)N1CCN(c2ncnc3c2C(C)CC3O)CC1)c1ccc(Cl)cc1 (stereo unspecified) + COc1c(OCCCN2CCOCC2)ccc2c3n(c(=NC(=O)c4cnc(N)nc4)nc12)CCN3"
class = "Satisfied"

[[record]]
molecule = "C#Cc1c(F)ccc2cc(O)cc(-c3ncc4c(N5CC6CCC(C5)N6)nc(OCC56CCCN5CC(F)C6)nc4c3F)c12 (stereo unspecified) + CC(Nc1ncnc2nc[nH]c12)c1cc2cccc(Cl)c2c(=O)n1-c1ccccc1"
class = "Not satisfied"

